- Test system: 616215-338-R-J1-PDC complex spheroid viability
- experiment-description: Anticancer human tumor 616215-338-R-J1-PDC patient-derived colon adenocarcinoma cell line growth inhibition [RAS]
- test-parameters: second compound 10 µM; first compound 0.00316 µM; stronger effect = lower value
measured-property: viability, T/C (%)

- compound: "CCN1CCN(Cc2ccc(Nc3ncc(F)c(-c4cc(F)c5nc(C)n(C(C)C)c5c4)n3)nc2)CC1 + C#Cc1c(F)ccc2cc(O)cc(-c3ncc4c(N5CC6CCC(C5)N6)nc(OCC56CCCN5CC(F)C6)nc4c3F)c12"
  target-of-assay: "616215-338-R-J1-PDC complex spheroid viability"
  measurement: 76.1
- compound: "Nc1ccn(C2OC(CO)C(O)C2(F)F)c(=O)n1 (stereo not drawn) + C#Cc1c(F)ccc2cc(O)cc(-c3ncc4c(N5CC6CCC(C5)N6)nc(OCC56CCCN5CC(F)C6)nc4c3F)c12"
  target-of-assay: "616215-338-R-J1-PDC complex spheroid viability"
  measurement: 50.9
- compound: "O=C(c1ccc(F)c(F)c1Nc1ccc(I)cc1F)N1CC(O)([C@@H]2CCCCN2)C1 + C#Cc1c(F)ccc2cc(O)cc(-c3ncc4c(N5CC6CCC(C5)N6)nc(OCC56CCCN5CC(F)C6)nc4c3F)c12"
  target-of-assay: "616215-338-R-J1-PDC complex spheroid viability"
  measurement: 48.8

* * *

- Test system: 616215-338-R-J1-PDC complex spheroid viability
- experiment-description: Anticancer human tumor 616215-338-R-J1-PDC cell line growth inhibition [RAS];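 note: spheroids exposed to agents for seven days before viability readout; 100% = DMSO vehicle control viability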
- test-parameters: second compound 0.316 µM; first compound 0.316 µM; stronger effect = lower value

- molecule: "CCN1CCN(Cc2ccc(Nc3ncc(F)c(-c4cc(F)c5nc(C)n(C(C)C)c5c4)n3)nc2)CC1 + C=CC(=O)N1CCN(c2nc(OCC3CCCN3C)nc3c(F)c(-c4nc(N)cc(C)c4C(F)(F)F)c(Cl)cc23)C(C)C1"
  unit-of-measurement: "%"
  viability, T/C: 131
- molecule: "CCC(CC)c1cc(NC2CCC(N)C2)n2nccc2n1 (stereo unspecified) + C=CC(=O)N1CCN(c2nc(OCC3CCCN3C)nc3c(F)c(-c4nc(N)cc(C)c4C(F)(F)F)c(Cl)cc23)C(C)C1"
  unit-of-measurement: "%"
  viability, T/C: 101
- molecule: "Nc1ccn(C2OC(CO)C(O)C2(F)F)c(=O)n1 (stereo unspecified) + C=CC(=O)N1CCN(c2nc(OCC3CCCN3C)nc3c(F)c(-c4nc(N)cc(C)c4C(F)(F)F)c(Cl)cc23)C(C)C1"
  unit-of-measurement: "%"
  viability, T/C: 14.9
- molecule: "Cc1nc(N2CCC3(CC2)COC(C)C3N)c(CO)nc1Sc1ccnc(N)c1Cl (stereo unspecified) + C#Cc1c(F)ccc2cc(O)cc(-c3ncc4c(N5CC6CCC(C5)N6)nc(OCC56CCCN5CC(F)C6)nc4c3F)c12"
  unit-of-measurement: "%"
  viability, T/C: 98.3
- molecule: "NC1c2ccccc2OC12CCN(c1cnc3c(N4CCCc5ncccc54)n[nH]c3n1)CC2 (stereo unspecified) + C#Cc1c(F)ccc2cc(O)cc(-c3ncc4c(N5CC6CCC(C5)N6)nc(OCC56CCCN5CC(F)C6)nc4c3F)c12"
  unit-of-measurement: "%"
  viability, T/C: 63.2
- molecule: "Cc1nc(N2CCC3(CC2)COC(C)C3N)c(CO)nc1Sc1ccnc(N)c1Cl (stereo unspecified) + C=CC(=O)N1CCN(c2nc(OCC3CCCN3C)nc3c(F)c(-c4nc(N)cc(C)c4C(F)(F)F)c(Cl)cc23)C(C)C1"
  unit-of-measurement: "%"
  viability, T/C: 129
- molecule: "C[C@@H](NC(=O)c1ncnc(N)c1Cl)c1ncc(C(=O)Nc2cc(C(F)(F)F)c(Cl)cn2)s1 + C#Cc1c(F)ccc2cc(O)cc(-c3ncc4c(N5CC6CCC(C5)N6)nc(OCC56CCCN5CC(F)C6)nc4c3F)c12"
  unit-of-measurement: "%"
  viability, T/C: 121
- molecule: "Nc1ccn(C2OC(CO)C(O)C2(F)F)c(=O)n1 (stereo unspecified) + C#Cc1c(F)ccc2cc(O)cc(-c3ncc4c(N5CC6CCC(C5)N6)nc(OCC56CCCN5CC(F)C6)nc4c3F)c12"
  unit-of-measurement: "%"
  viability, T/C: 13.9
- molecule: "O=C(c1ccc(F)c(F)c1Nc1ccc(I)cc1F)N1CC(O)([C@@H]2CCCCN2)C1 + C#Cc1c(F)ccc2cc(O)cc(-c3ncc4c(N5CC6CCC(C5)N6)nc(OCC56CCCN5CC(F)C6)nc4c3F)c12"
  unit-of-measurement: "%"
  viability, T/C: 13
- molecule: "CCC(CC)c1cc(NC2CCC(N)C2)n2nccc2n1 (stereo unspecified) + C#Cc1c(F)ccc2cc(O)cc(-c3ncc4c(N5CC6CCC(C5)N6)nc(OCC56CCCN5CC(F)C6)nc4c3F)c12"
  unit-of-measurement: "%"
  viability, T/C: 101
- molecule: "CC(=O)OC12COC1CC(O)C1(C)C(=O)C(O)C3=C(C)C(OC(=O)C(O)C(NC(=O)OC(C)(C)C)c4ccccc4)CC(O)(C(OC(=O)c4ccccc4)C21)C3(C)C (stereo unspecified) + C=CC(=O)N1CCN(c2nc(OCC3CCCN3C)nc3c(F)c(-c4nc(N)cc(C)c4C(F)(F)F)c(Cl)cc23)C(C)C1"
  unit-of-measurement: "%"
  viability, T/C: 17.2
- molecule: "C=CC(=O)Nc1cc(Nc2nccc(-c3cn(C)c4ccccc34)n2)c(OC)cc1N(C)CCN(C)C + C#Cc1c(F)ccc2cc(O)cc(-c3ncc4c(N5CC6CCC(C5)N6)nc(OCC56CCCN5CC(F)C6)nc4c3F)c12"
  unit-of-measurement: "%"
  viability, T/C: 93.2
- molecule: "CC1(O)CCCC1n1c(=O)c(C(F)F)cc2cnc(NC3CCN(S(C)(=O)=O)CC3)nc21 (stereo unspecified) + C#Cc1c(F)ccc2cc(O)cc(-c3ncc4c(N5CC6CCC(C5)N6)nc(OCC56CCCN5CC(F)C6)nc4c3F)c12"
  unit-of-measurement: "%"
  viability, T/C: 54.5
- molecule: "CC(Nc1ccc2c(c1)OCCn1cc(N3C(=O)OCC3C(F)F)nc1-2)C(N)=O (stereo unspecified) + C#Cc1c(F)ccc2cc(O)cc(-c3ncc4c(N5CC6CCC(C5)N6)nc(OCC56CCCN5CC(F)C6)nc4c3F)c12"
  unit-of-measurement: "%"
  viability, T/C: 111
- molecule: "C=CC(=O)Nc1cc(Nc2nccc(-c3cn(C)c4ccccc34)n2)c(OC)cc1N(C)CCN(C)C + C=CC(=O)N1CCN(c2nc(OCC3CCCN3C)nc3c(F)c(-c4nc(N)cc(C)c4C(F)(F)F)c(Cl)cc23)C(C)C1"
  unit-of-measurement: "%"
  viability, T/C: 109
- molecule: "CC(Nc1ccc2c(c1)OCCn1cc(N3C(=O)OCC3C(F)F)nc1-2)C(N)=O (stereo unspecified) + C=CC(=O)N1CCN(c2nc(OCC3CCCN3C)nc3c(F)c(-c4nc(N)cc(C)c4C(F)(F)F)c(Cl)cc23)C(C)C1"
  unit-of-measurement: "%"
  viability, T/C: 111
